IC50 values for 3',5'-cyclic-AMP phosphodiesterase 4D (Homo sapiens), compiled from several publications.
measurement-label: IC50 (nM)

IN: What measured IC50 is associated with `O=C(c1ccc(-c2ccc(F)cc2F)o1)N1CCc2ccccc2C1` on 3',5'-cyclic-AMP phosphodiesterase 4D (Homo sapiens)?
OUT: 18100

(1) CC(C)(c1cc(-c2cccc(C(=O)Nc3ccccc3)c2)c2ncccc2c1)S(C)(=O)=O
(2) COc1cccc(-c2cc(Cc3ccncc3)cc3cccnc23)c1
(3) C=CCc1c(C)nc(-c2cccs2)nc1Nc1ccc(C(=O)O)cc1
IN: # ascending order, key=IC50 Record the ranking as a list of labels in the requested order.
OUT: 2, 1, 3
(2: 2.5 nM, 1: 10 nM, 3: 1300 nM)

(P) CNc1cccc(-c2cc3nccc(-c4ccc(OC(F)F)c(OCC5CC5)c4)n3n2)c1
(Q) O=C(c1ccc(-c2ccc(F)cc2F)o1)N1CCCc2ccccc21
IN: Select the item with the higher value of IC50 from the options P and Q listed. To answer, give the label that identifies your chosen option.
OUT: Q
(Q: 15600 nM, P: 40 nM)

(1) Cn1nc(-c2ccc(Cl)cc2)s/c1=N\c1cccc(CC(=O)O)c1
(2) CC1(C)Cc2c(c(N3CCOCC3)nc3sc4c(N(CCN5CCOCC5)Cc5cccnc5)ncnc4c23)CO1
(3) Cn1nc(-c2ccc(S(N)(=O)=O)cc2)s/c1=N\C1CCCCC1
IN: Place the items in sequence of falling IC50. Record the ranking as a list of labels in the requested order.
OUT: 1, 3, 2
(1: 23000 nM, 3: 11000 nM, 2: 19 nM)
